Target: T1, RBFOX1 RRM (Homo sapiens, UniProt Q9NWB1 109-208)
T1 sequence: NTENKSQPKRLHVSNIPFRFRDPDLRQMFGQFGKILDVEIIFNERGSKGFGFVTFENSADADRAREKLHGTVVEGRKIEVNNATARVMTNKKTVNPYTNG
Test: EMSA; HiTS-Eq, 1 nM pool, 10 min; buffer printed only for the single-RNA assays: 10 mM Tris pH 7.5, 150 mM NaCl, 3.4 mM EDTA, 0.001% NP-40, 30 C
Conditions: tags: His6 N-terminal (pET28a); label: 5' 32P
Whole data set: some 16,000 sequences, median “ka relative to ugcaugu” near 0.0091, cut for the highest 2% near 0.032. The full list was thinned out, with the highest values kept by preference.
binding signal listing for selected binders.

{"binder": "UGCUGGA (DNA:RNA) RNA: GGGAGACCGGAAUUCAGAUUGUCCUGCUGGAUUAAAUCCCGUCGUAGCCACCA DNA 1: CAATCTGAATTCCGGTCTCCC DNA 2: TGGTGGCTACGACGGGATT", "binding signal": "0.0106 KA relative to UGCAUGU"}
{"binder": "UGGAUGG (DNA:RNA) RNA: GGGAGACCGGAAUUCAGAUUGUCCUGGAUGGUUAAAUCCCGUCGUAGCCACCA DNA 1: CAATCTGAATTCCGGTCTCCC DNA 2: TGGTGGCTACGACGGGATT", "binding signal": "0.0304 KA relative to UGCAUGU"}
{"binder": "UCUUCCA (DNA:RNA) RNA: GGGAGACCGGAAUUCAGAUUGUCCUCUUCCAUUAAAUCCCGUCGUAGCCACCA DNA 1: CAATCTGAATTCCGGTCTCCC DNA 2: TGGTGGCTACGACGGGATT", "binding signal": "0.00385 KA relative to UGCAUGU"}

For reference, reported binding signal for UGAUGGA (DNA:RNA) RNA: GGGAGACCGGAAUUCAGAUUGUCCUGAUGGAUUAAAUCCCGUCGUAGCCACCA DNA 1: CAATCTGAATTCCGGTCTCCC DNA 2: TGGTGGCTACGACGGGATT stands at 0.00526 KA relative to UGCAUGU

Sourced from paper PMC9911399
